meta.source: patent US20120039802A1

Molecular target: T1, cMet-Fc fusion protein (extracellular domain of the cMet receptor expressed as an Fc-fusion protein) (human, UniProt P08581 25-932)
T1 construct: extracellular domain; also called soluble cMet-Fc-fusion protein; soluble cMet receptor; not shown: Fc part
T1 sequence (P08581 25-932): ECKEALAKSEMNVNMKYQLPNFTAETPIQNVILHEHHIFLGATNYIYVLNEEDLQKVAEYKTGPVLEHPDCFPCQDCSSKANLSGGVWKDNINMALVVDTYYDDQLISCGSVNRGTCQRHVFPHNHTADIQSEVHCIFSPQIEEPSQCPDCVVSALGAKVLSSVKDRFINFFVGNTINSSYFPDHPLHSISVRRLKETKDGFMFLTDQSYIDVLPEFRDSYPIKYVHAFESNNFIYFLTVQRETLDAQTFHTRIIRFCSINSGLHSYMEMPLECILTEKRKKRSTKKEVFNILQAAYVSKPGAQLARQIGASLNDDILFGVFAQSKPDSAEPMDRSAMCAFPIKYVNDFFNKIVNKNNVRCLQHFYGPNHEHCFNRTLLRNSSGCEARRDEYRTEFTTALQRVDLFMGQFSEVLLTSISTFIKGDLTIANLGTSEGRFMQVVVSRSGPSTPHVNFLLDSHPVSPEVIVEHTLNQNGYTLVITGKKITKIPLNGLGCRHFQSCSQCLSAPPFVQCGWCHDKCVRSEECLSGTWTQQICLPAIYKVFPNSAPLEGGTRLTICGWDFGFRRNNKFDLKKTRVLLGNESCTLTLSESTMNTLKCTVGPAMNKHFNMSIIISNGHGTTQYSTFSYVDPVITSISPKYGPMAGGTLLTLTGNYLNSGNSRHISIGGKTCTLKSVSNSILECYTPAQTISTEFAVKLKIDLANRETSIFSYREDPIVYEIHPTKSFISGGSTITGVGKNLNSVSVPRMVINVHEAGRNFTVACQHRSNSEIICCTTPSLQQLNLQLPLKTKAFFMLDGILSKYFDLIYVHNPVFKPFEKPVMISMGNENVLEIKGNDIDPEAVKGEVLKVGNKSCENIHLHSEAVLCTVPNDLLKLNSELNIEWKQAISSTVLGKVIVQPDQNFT
Experiment: phage ELISA on cMet-Fc, competitor HGF 500 ng/mL
Threshold rule: % of binding in the absence of HGF greater than or equal to 80% is met; below that, not met.

Challenge: % of binding in the absence of HGF >= 80% for GSMLMCELWWCRFLAP [569-H10 peptide-displaying phage (SEQ ID NO: 004)] ?
Response given: met

Challenge: Check if % of binding in the absence of HGF >= 80% (inclusive). Item: AGLPKCSGPPWFSCYYGGT [545-A09 peptide-displaying phage (SEQ ID NO: 066)]
Response given: not met

Challenge: Is it the case that AQKTWFLEADLFQMFQEVTWQF [103-C04 peptide-displaying phage (SEQ ID NO: 490)] has % of binding in the absence of HGF reaching or exceeding 80%?
Response given: met

Challenge: In plain terms: is recorded % of binding in the absence of HGF at least 80% for AGSFACKGPPTFACVEFGT [330-B07 peptide-displaying phage (SEQ ID NO: 053)] ?
Response given: not met

Challenge: Tell me whether % of binding in the absence of HGF is at least 80% here: GDASWCDENSPAAWFYCELWDP [551-D02 peptide-displaying phage (SEQ ID NO: 394)]
Response given: not met

Challenge: Answer whether % of binding in the absence of HGF of GSYYDCREFQCNKPAP [465-A06 peptide-displaying phage (SEQ ID NO: 002)] is greater than or equal to 80%.
Response given: not met

Challenge: Kindly determine if % of binding in the absence of HGF recorded for AGKYMCEGFEWFCEMWGT [442-E08 peptide-displaying phage (SEQ ID NO: 037)] is above or exactly 80%.
Response given: not met
